- Target Of Assay: AtPep1 receptor (At1g73080, AtPEPR1) (Arabidopsis thaliana, UniProt Q9SSL9)
- Sequence (Q9SSL9 29-1123): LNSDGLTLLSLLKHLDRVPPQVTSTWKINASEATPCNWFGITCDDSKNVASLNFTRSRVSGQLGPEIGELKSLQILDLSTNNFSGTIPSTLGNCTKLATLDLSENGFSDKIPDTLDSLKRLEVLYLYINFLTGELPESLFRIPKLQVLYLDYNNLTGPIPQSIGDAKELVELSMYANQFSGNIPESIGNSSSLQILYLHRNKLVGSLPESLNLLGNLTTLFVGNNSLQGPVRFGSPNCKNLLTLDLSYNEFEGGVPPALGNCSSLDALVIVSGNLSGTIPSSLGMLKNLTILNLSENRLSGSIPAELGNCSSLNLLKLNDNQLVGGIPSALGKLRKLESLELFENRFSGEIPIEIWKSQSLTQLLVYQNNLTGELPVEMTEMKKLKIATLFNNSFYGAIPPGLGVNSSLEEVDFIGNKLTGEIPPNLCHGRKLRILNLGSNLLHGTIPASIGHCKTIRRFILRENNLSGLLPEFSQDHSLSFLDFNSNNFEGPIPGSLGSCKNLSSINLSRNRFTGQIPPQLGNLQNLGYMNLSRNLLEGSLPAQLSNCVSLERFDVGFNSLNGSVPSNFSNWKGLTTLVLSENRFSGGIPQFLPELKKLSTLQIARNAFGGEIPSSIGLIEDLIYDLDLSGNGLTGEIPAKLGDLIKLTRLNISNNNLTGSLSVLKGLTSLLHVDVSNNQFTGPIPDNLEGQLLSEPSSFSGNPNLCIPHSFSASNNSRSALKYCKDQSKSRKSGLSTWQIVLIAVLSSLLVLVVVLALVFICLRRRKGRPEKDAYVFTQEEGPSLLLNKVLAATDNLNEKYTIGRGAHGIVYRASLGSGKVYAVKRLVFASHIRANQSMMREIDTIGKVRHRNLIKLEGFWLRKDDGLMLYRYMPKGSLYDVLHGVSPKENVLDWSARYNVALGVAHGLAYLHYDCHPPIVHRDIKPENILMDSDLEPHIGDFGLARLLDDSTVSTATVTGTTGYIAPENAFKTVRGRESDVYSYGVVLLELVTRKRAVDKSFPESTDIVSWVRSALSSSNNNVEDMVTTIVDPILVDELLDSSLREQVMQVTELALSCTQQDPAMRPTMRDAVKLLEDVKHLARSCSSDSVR
- Test Protocol: Binding assay of 125I1-Tyr-AtPep1 with Arabidopsis suspension cultured cells
pKd: −log10 of the molar value.
Recorded Metric: pKd

Substance	Experimental Result
H-ATKVKAKQRGKEKVSSGRPGQHN-OH [AtPep1]	9.60

* * *

- Tested on: Arabidopsis suspension cultured cells
- Test Protocol: Alkalinization assay with Arabidopsis suspension cultured cells
- Assay type: cell-based, Arabidopsis thaliana
- Setup Conditions: Arabidopsis suspension cultured cells, pH of media after 20 min

Substance	activity in the alkalinization assay
15-mer RGKEKVSSGRPGQHN with Gly at position 9 replaced by Ala; inactive derivative of AtPep1 [Gly to Ala substitution at position 9]	little activity
15-mer RGKEKVSSGRPGQHN with Ser at position 7 replaced by Ala (-ASGR-) [Ser to Ala substitution at position 7]	little activity

* * *

pEC50 for assorted sequences
- System: OsPEPR1
- Sequence (as listed by the source): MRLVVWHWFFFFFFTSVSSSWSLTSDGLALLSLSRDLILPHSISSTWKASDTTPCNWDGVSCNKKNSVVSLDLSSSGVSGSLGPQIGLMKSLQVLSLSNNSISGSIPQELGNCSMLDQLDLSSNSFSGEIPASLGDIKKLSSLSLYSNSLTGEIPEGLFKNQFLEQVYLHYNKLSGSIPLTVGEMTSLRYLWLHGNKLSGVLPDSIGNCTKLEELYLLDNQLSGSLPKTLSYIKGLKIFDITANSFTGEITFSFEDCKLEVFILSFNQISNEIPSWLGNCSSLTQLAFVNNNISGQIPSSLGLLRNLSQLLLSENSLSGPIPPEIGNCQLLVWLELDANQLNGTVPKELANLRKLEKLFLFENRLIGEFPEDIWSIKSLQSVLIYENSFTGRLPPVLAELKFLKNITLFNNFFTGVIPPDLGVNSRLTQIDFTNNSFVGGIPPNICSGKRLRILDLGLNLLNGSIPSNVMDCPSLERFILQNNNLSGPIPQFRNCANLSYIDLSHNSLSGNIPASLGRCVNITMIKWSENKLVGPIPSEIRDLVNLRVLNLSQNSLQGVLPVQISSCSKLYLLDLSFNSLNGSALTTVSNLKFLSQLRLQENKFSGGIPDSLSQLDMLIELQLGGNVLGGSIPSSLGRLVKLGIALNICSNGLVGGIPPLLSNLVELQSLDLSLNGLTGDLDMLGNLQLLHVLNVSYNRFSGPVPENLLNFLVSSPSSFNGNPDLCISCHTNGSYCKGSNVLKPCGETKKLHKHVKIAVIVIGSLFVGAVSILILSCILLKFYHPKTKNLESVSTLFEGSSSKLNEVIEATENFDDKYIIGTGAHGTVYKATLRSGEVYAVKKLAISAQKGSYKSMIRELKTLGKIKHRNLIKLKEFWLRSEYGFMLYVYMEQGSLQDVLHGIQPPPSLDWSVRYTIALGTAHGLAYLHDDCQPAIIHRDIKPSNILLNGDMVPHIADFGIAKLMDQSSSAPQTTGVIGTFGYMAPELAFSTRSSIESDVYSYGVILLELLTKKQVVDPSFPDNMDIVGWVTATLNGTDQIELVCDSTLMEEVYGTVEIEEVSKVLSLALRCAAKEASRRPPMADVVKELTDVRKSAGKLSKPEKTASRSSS
- Test Protocol: Medium alkalinization of transgenic tobacco cells expressing OsPEPR1
- Assay type: cell-based, rice
- Setup Conditions: read-out: half-maximal activity
pEC50: −log10 of the molar value.

Sequence Input	pEC50
VRRRPTTPGRPREGSGGNGGNHH [ZmPep1, VRRRPTTPGRPREGSGGNGGNHH]	9.60
RRPTPPGGAGPREGSGGRGGVIH [OsPep3b, RRPTPPGGAGPREGSGGRGGVIH]	9.60

* * *

- Target Of Assay: AtPEPR2 (Arabidopsis thaliana, UniProt Q9FZ59)
- Construct: the AtPEPR2 coding region was fused to the CaMV 35S promoter and introduced into tobacco suspension-cultured cells; expressed in transfected cells; host or cells: tobacco suspension-cultured cells, transformed by Agrobacterium, kanamycin-selected
- Sequence (Q9FZ59 27-1088): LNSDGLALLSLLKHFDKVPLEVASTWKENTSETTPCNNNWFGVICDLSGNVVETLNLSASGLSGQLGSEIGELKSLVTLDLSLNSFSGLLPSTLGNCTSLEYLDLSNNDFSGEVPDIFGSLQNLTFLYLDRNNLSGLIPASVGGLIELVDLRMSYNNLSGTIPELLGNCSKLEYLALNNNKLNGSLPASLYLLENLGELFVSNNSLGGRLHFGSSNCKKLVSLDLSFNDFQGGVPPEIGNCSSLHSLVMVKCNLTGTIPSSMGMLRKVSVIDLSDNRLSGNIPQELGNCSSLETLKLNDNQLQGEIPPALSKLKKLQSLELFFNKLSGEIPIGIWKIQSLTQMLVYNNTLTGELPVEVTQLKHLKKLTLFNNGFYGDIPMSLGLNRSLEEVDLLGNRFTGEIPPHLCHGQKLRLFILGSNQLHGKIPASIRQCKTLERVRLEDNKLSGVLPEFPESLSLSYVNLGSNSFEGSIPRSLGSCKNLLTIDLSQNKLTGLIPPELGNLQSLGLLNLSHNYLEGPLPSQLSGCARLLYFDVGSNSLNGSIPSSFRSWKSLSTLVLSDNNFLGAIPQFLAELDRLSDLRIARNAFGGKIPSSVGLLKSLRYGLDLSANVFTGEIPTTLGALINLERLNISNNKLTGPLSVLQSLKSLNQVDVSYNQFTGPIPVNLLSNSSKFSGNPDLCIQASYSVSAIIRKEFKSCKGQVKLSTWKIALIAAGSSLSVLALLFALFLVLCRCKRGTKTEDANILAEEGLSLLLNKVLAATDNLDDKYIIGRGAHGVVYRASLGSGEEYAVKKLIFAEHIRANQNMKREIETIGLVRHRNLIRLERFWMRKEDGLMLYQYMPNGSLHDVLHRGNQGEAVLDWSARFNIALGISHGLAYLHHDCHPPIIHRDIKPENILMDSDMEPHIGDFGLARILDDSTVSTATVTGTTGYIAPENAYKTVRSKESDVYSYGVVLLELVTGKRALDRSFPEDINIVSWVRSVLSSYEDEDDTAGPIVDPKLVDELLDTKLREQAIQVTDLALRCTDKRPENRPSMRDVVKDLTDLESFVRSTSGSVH
- Test Protocol: Medium alkalinization of transgenic tobacco cells expressing AtPEPR2
- Assay type: cell-based
pEC50: −log10 of the molar value. No end group written: not given here.
Recorded Metric: pEC50

Substance	Experimental Result
H-ATKVKAKQRGKEKVSSGRPGQHN-OH [AtPep1]	~9.60
SLNVMRKGIRKQPVSSGKRGGVN [AtPep2, SLNVMRKGIRKQPVSSGKRGGVN]	~9.60
